Where do these numbers come from? They come from patent US20110150888A1.

Biological target: T1, human hepcidin (mature, 25 amino acids) (human, mono-biotinylated in the ELISAs and on the KinExA beads (site not stated); unlabelled in solution and on the BIAcore chip)
T1 construct: the form is named in each assay field; also called rhuHepc; rhHepc
T1 peptide: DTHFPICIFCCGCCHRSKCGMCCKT
Test: KinExA solution equilibrium, human hepcidin-coated beads
pKd: −log10 of the molar value.

- binder: "15E1 A99H (antibody, V domains shown, Histidine mutant of 15E1, transiently expressed in 293-6E cells; constant regions as in wild-type 15E1; also called A99H (heavy chain)) VH: QVQLVESGGGVVQPGRSLRLSCAASGFTFSSYGMHWVRQAPGKGLEWVAVIWYAESNKYYADSVKGRFTISRDNSKNTLYLQMNSLRAEDTAVYYCARHQEGIAPDAFDIWGQGTMVTVSS VL: SYELTQPPSVSVSPGQTATITCSGDKLGERYACWYQQRPGQSPVLVIYQDSKRPSGIPERFSGSNSGNTATLTISGTQAMDEADYFCQAWYSSTNVLFGGGTKLTVL"
  result-modifier: "<"
  pKd: 8.00
- binder: "15E1 N57H (antibody, V domains shown, Histidine mutant of 15E1, transiently expressed in 293-6E cells; constant regions as in wild-type 15E1; also called N57H (heavy chain)) VH: QVQLVESGGGVVQPGRSLRLSCAASGFTFSSYGMHWVRQAPGKGLEWVAVIWYAESHKYYADSVKGRFTISRDNSKNTLYLQMNSLRAEDTAVYYCARAQEGIAPDAFDIWGQGTMVTVSS VL: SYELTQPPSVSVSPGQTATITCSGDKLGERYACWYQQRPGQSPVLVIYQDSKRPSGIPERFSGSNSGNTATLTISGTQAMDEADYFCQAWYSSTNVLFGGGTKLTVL"
  result-modifier: "="
  pKd: 8.52
- binder: "antibody 15E1 (wild type) (antibody, V domains shown, Human antibody) VH: QVQLVESGGGVVQPGRSLRLSCAASGFTFSSYGMHWVRQAPGKGLEWVAVIWYAESNKYYADSVKGRFTISRDNSKNTLYLQMNSLRAEDTAVYYCARAQEGIAPDAFDIWGQGTMVTVSS VL: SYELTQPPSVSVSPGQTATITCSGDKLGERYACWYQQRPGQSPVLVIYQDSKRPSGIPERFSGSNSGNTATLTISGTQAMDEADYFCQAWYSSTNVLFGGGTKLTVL"
  result-modifier: "="
  pKd: 10.43
- binder: "antibody 18B11 (antibody, V domains shown, Human antibody from Xenomouse IgG2 or IgG4 mice; also called 181311) VH: QVQLQQWGAGPLKPSETLSLTCAVYNGSFSGYYWSWIRQPPGKGLEWIGDINHSGNTKYNPSLKSRVTISVDTSKNQFSLKLSSVTAADTAVYYCARGDFWSGFDWFDPWGQGTLVTVSS VL: QSALTQPASVSGSPGQSITISCTGTSSNVGSYNLVSWYQQHPGKAPKLMISEVSKRPSGLSNRFSGSKSGNTASLTISGLQAEDEADYYCCSYAGSSTLIFGGGTKLTVL"
  result-modifier: "="
  pKd: 8.13
- binder: "15E1 A107H (antibody, V domains shown, Histidine mutant of 15E1, transiently expressed in 293-6E cells; constant regions as in wild-type 15E1; also called A107H (heavy chain)) VH: QVQLVESGGGVVQPGRSLRLSCAASGFTFSSYGMHWVRQAPGKGLEWVAVIWYAESNKYYADSVKGRFTISRDNSKNTLYLQMNSLRAEDTAVYYCARAQEGIAPDHFDIWGQGTMVTVSS VL: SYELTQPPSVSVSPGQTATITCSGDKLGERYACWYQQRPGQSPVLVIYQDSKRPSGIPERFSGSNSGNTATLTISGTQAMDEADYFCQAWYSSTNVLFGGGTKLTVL"
  result-modifier: "="
  pKd: 10.51
